The reported measurements were obtained from paper PMC10928841.

Experimental Target: CYP2E1 (Rattus norvegicus)
Sequence (P05182 whole entry): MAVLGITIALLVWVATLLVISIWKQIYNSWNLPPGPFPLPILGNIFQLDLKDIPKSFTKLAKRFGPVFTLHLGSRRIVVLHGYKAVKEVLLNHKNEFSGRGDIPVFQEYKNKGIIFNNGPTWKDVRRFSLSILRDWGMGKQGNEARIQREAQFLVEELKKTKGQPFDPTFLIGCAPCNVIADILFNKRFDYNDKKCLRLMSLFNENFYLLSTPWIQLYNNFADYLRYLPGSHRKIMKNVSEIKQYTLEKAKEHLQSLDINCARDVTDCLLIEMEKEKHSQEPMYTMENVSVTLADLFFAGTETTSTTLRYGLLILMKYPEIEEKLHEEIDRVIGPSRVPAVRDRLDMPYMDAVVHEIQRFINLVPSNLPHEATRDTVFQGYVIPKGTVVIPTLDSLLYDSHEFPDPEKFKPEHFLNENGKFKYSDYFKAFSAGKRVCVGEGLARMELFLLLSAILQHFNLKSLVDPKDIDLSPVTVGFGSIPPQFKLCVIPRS
Test Summary: Effect of vehicle on CYP2E1 activity of rat liver S9 (chlorzoxazone 6-hydroxylation)
Settings: induced rat liver S9; vehicle 7.7% (v/v); chlorzoxazone 10 µM; 30 min
Reported Property: effect on conversion of chlorzoxazone to 6-hydroxychlorzoxazone compared with water

CC#N [acetonitrile]; inhibit
CC(C)=O [acetone]; negligible effect
C[S+](C)[O-] [DMSO, dimethylsulfoxide]; inhibit
CO [Methanol, methanol]; negligible effect
